tested on: CAL-51; experiment: normalised viability (% of control), CellTiter-Blue; higher = more viable cells (about 100 = DMSO control); details: incubation time: 72 h
measured_metric: normalised viability (%)
Give bare numbers, in %.

1) CO[C@@H]1[C@H](N(C)C(=O)c2ccccc2)C[C@H]2O[C@]1(C)n1c3ccccc3c3c4c(c5c6ccccc6n2c5c31)C(=O)NC4 [Midostaurin] (3000 nM); 6.39
2) CCNC(=O)CCC/C=C\C[C@@H]1[C@@H](/C=C/[C@@H](O)CCc2ccccc2)[C@H](O)C[C@@H]1O [Bimatoprost] (1650 nM); 111
3) Cc1cc(Nc2nc(N[C@@H](C)c3ncc(F)cn3)ncc2Cl)[nH]n1 [AZD1480] (300 nM); 98.8

Q. Form field: reported normalised viability of COc1cc(Nc2c(C#N)cnc3cc(OCCCN4CCN(C)CC4)c(OC)cc23)c(Cl)cc1Cl [Bosutinib] (3000 nM)
A. 80.3

----------
test system: MDA-MB-231; assay: drug sensitivity score (DSS), CellTox Green (DSS (AUC-based score)); higher = stronger drug effect (viability inhibition or cytotoxicity); extreme values may be limits of the assay; details: incubation time: 72 h
measured_metric: drug sensitivity score
Give bare numbers.

Take a look at these entries with their results.
1) CC[C@H](CO)Nc1nc(NCc2ccccc2)c2ncn(C(C)C)c2n1; 0
2) C=CCn1c(=O)c2cnc(Nc3ccc(N4CCN(C)CC4)cc3)nc2n1-c1cccc(C(C)(C)O)n1; 19.8
3) CC(C)C[C@H](NC(=O)[C@@H](COC(C)(C)C)NC(=O)[C@H](Cc1ccc(O)cc1)NC(=O)[C@H](CO)NC(=O)[C@H](Cc1c[nH]c2ccccc12)NC(=O)[C@H](Cc1cnc[nH]1)NC(=O)[C@@H]1CCC(=O)N1)C(=O)N[C@@H](CCCNC(=N)N)C(=O)N1CCC[C@H]1C(=O)NNC(N)=O; 0
4) Cc1nc(C(=O)NCC(=O)O)c(O)c2ccc(Oc3ccccc3)cc12; 0
5) CN[C@@H](C)C(=O)N[C@H]1CN(C(=O)CC(C)C)CC[C@H]2CC[C@@H](C(=O)NC(c3ccccc3)c3ccccc3)N2C1=O; 25.5

Each compound below has a recorded value; state its drug sensitivity score.
1. O=C(O)CNC(=O)c1c(O)c2ccccc2n(Cc2ccccc2)c1=O
2. CC(C)(C)c1nc(-c2cccc(NS(=O)(=O)c3c(F)cccc3F)c2F)c(-c2ccnc(N)n2)s1

A.
[0, 0]

----------
So I've got a bunch of compounds here, and I need their drug sensitivity score values.
tested on: MDA-MB-436; assay: drug sensitivity score (DSS), CellTiter-Blue viability (DSS (AUC-based score)); higher = stronger viability inhibition; extreme values may be limits of the assay; settings: incubation time: 72 h
Give bare numbers.

1. C=CCN(/C=C1/C(=O)O[C@H](COC)[C@@]2(C)C1=C(O)C(=O)C1=C2[C@H](OC(C)=O)C[C@]2(C)C(=O)CC[C@@H]12)CC=C; 0
2. CCN(CC)CCCC(C)Nc1ccnc2cc(Cl)ccc12 (centres undefined); 0
3. CC(C)C[C@H](NC(=O)[C@@H](COC(C)(C)C)NC(=O)[C@H](Cc1ccc(O)cc1)NC(=O)[C@H](CO)NC(=O)[C@H](Cc1c[nH]c2ccccc12)NC(=O)[C@H](Cc1cnc[nH]1)NC(=O)[C@@H]1CCC(=O)N1)C(=O)N[C@@H](CCCNC(=N)N)C(=O)N1CCC[C@H]1C(=O)NNC(N)=O; 0

Okay, now this compound:
Q. Checklist item: drug sensitivity score tested on MDA-MB-436, entry "CC(=O)[C@]1(O)Cc2c(O)c3c(c(O)c2[C@@H](O[C@H]2C[C@H](N)[C@H](O)[C@H](C)O2)C1)C(=O)c1ccccc1C3=O" , value?
A. 9.77

----------
Please provide measured normalised viability for the entries that follow.
system: CAL-120; assay: normalised viability (% of control), CellTiter-Blue; higher = more viable cells (100 = DMSO, 0 = benzethonium chloride kill control); conditions: incubation time: 72 h
Give bare numbers, in %.

Guide cases for normalised viability, answers given:
1) CNC(=O)c1ccccc1Sc1ccc2c(/C=C/c3ccccn3)n[nH]c2c1 [Axitinib] (1 nM); 77.4
2) CC(C)C[C@H](NC(=O)[C@@H](COC(C)(C)C)NC(=O)[C@H](Cc1ccc(O)cc1)NC(=O)[C@H](CO)NC(=O)[C@H](Cc1c[nH]c2ccccc12)NC(=O)[C@H](Cc1cnc[nH]1)NC(=O)[C@@H]1CCC(=O)N1)C(=O)N[C@@H](CCCNC(=N)N)C(=O)N1CCC[C@H]1C(=O)NNC(N)=O [Goserelin] (1 nM); 104
3) CCNC(=O)c1noc(-c2cc(C(C)C)c(O)cc2O)c1-c1ccc(CN2CCOCC2)cc1 [NVP-AUY922] (0.1 nM); 111
4) CC(O)(CS(=O)(=O)c1ccc(F)cc1)C(=O)Nc1ccc(C#N)c(C(F)(F)F)c1 (stereo unspecified) [Bicalutamide] (1 nM); 96
5) COc1cc(Nc2c(C#N)cnc3cc(OCCCN4CCN(C)CC4)c(OC)cc23)c(Cl)cc1Cl [Bosutinib] (1 nM); 84.3

Next item in the queue.
Q. Return reported normalised viability; argument: CC1(C)CCC(c2ccc(Cl)cc2)=C(CN2CCN(c3ccc(C(=O)NS(=O)(=O)c4ccc(N[C@H](CCN5CCOCC5)CSc5ccccc5)c(S(=O)(=O)C(F)(F)F)c4)cc3)CC2)C1 [Navitoclax] (1 nM)
A. 73.8

----------
Assign normalised response to each entry below.
system: BT-474; assay: normalised response (% of control), CellTox Green; higher = less cell death (100 = DMSO, 0 = benzethonium chloride kill control); details: incubation time: 72 h
Numbers only, in %.

Quick one: give me normalised response for each item below, same order please.
1. CC(C)(C)NC(=O)[C@H]1CC[C@H]2[C@@H]3CC[C@H]4NC(=O)C=C[C@]4(C)[C@H]3CC[C@]12C [Finasteride] (100 nM)
2. O=C(CCCCCCC(=O)Nc1ccccc1)NO [Vorinostat] (10000 nM)
3. Cc1nc(C(=O)NCC(=O)O)c(O)c2ccc(Oc3ccccc3)cc12 [FG-4592] (1000 nM)
4. CC(C)n1cnc2c(NCCc3ccc(O)cc3)nc(-c3csc4ccccc34)nc21 [StemRegenin 1] (100 nM)

A.
1: 99; 2: 32.6; 3: 101; 4: 80

----------
test system: MDA-MB-436; assay: normalised viability (% of control), CellTiter-Blue; higher = more viable cells (about 100 = DMSO control); details: 10 nM; incubation time: 72 h
Could you please report measured normalised viability for the items listed next?
A bare number is not enough; add the unit after it.

1) Cn1cc(C2=C(c3cn(C4CCN(Cc5ccccn5)CC4)c4ccccc34)C(=O)NC2=O)c2ccccc21; 127%
2) CC(C)C[C@H](NC(=O)[C@@H](COC(C)(C)C)NC(=O)[C@H](Cc1ccc(O)cc1)NC(=O)[C@H](CO)NC(=O)[C@H](Cc1c[nH]c2ccccc12)NC(=O)[C@H](Cc1cnc[nH]1)NC(=O)[C@@H]1CCC(=O)N1)C(=O)N[C@@H](CCCNC(=N)N)C(=O)N1CCC[C@H]1C(=O)NNC(N)=O; 95.6%
3) CC1(C)CCC(c2ccc(Cl)cc2)=C(CN2CCN(c3ccc(C(=O)NS(=O)(=O)c4ccc(N[C@H](CCN5CCOCC5)CSc5ccccc5)c(S(=O)(=O)C(F)(F)F)c4)cc3)CC2)C1; 76.2%

For each of the items listed, what is its normalised viability?
1. CO[C@@H]1[C@H](N(C)C(=O)c2ccccc2)C[C@H]2O[C@]1(C)n1c3ccccc3c3c4c(c5c6ccccc6n2c5c31)C(=O)NC4
2. CN(Cc1cnc2nc(N)nc(N)c2n1)c1ccc(C(=O)N[C@@H](CCC(=O)O)C(=O)O)cc1 [Methotrexate]

A.
94.2%
111%

----------
system: Hs578T; experiment: normalised response (% of control), CellTiter-Glo; higher = more viable cells (100 = DMSO, 0 = benzethonium chloride kill control); details: incubation time: 72 h
Please respond with reported normalised response for every item in the list.
One number for each entry, in %.

Fill in normalised response for each of the 6 compounds listed.
1. CCN(CC)CCCC(C)Nc1ccnc2cc(Cl)ccc12 (stereo unspecified) [Chloroquine] (1000 nM)
2. CO[C@@H]1[C@H](N(C)C(=O)c2ccccc2)C[C@H]2O[C@]1(C)n1c3ccccc3c3c4c(c5c6ccccc6n2c5c31)C(=O)NC4 [Midostaurin] (100 nM)
3. O=[N+]([O-])c1ccc2c(c1)S(=O)(=O)C=C2 [Stattic] (500 nM)
4. CC1(C)CCC(c2ccc(Cl)cc2)=C(CN2CCN(c3ccc(C(=O)NS(=O)(=O)c4ccc(N[C@H](CCN5CCOCC5)CSc5ccccc5)c(S(=O)(=O)C(F)(F)F)c4)cc3)CC2)C1 [Navitoclax] (100 nM)
5. O=C(O)CNC(=O)c1c(O)c2ccccc2n(Cc2ccccc2)c1=O [IOX-2] (500 nM)
6. COc1ccc(S(=O)(=O)Nc2cccnc2Nc2ccc(O)cc2)cc1 [ABT-751] (100 nM)

A.
96
83.3
96.5
93.6
99.4
107
